subject.of.test: NADPH oxidase 2 (Homo sapiens)
test.summary: NOX2-dependent H2O2 signal modulators, primary screen, NOX inhibitor project, cell-based, HEK293-NOX2, PMA-stimulated, Amplex Red fluorescence (AID 1159); further: test concentration not given here
test.conditions: 45 min, higher = more signal, called active from +8 up or from −8 down

| molecule | z-score |
| --- | --- |
| CCOC(=O)C[C@H]1[C@H](OC(=O)c2ccc(-c3ccccc3)cc2)[C@@H](NC(=O)c2ccccc2)c2cc(OCCCO)ccc2N1C(=O)c1ccccc1 | 2.09 |
| COCCCN1C(=O)[C@@]2(Cc3ccccc31)c1ccccc1C(=O)N(Cc1ccccc1Cl)[C@H]2c1ccc(CO)cc1 | -2.48 |
| CCOC(=O)C[C@H]1[C@H](OC(=O)c2ccc(-c3ccccc3)cc2)[C@@H](NC(=O)C2CCCCC2)c2cc(OCCCO)ccc2N1C(=O)c1ccc2ccccc2n1 | 1.13 |
| COCCOC(=O)N1C(=O)[C@@]2(c3cc(C#CCNC(N)=O)ccc31)[C@H](C(=O)NC[C@H](O)c1ccccc1)[C@H]1C(=O)O[C@H](c3ccccc3)[C@H](c3ccccc3)N1[C@@H]2c1ccc(O)cc1 | 1.46 |
| COC(=O)C1=CC(c2ccc(CO)cc2)=CC(C2CC2)N(C)C=C1C(=O)OC (configuration not stated) | -1.7 |
| CCCCCN1CC=CC23O[C@@H]4/C=C\CCC(C)OC(=O)C4[C@H]2C(=O)N(CCO)[C@@H]3C1=O (some centres not stated) | 1.88 |
| C=CCNC(=O)[C@H]1[C@@H]2C(=O)O[C@@H](c3ccccc3)[C@@H](c3ccccc3)N2[C@@H](c2ccc(OCCO)cc2)[C@]12C(=O)Nc1ccc(C#CCCO)cc12 | 2.4 |

====

subject.of.test: Torsin-1A (Homo sapiens) (UniProt O14656)
Sequence (O14656 whole entry, looked up): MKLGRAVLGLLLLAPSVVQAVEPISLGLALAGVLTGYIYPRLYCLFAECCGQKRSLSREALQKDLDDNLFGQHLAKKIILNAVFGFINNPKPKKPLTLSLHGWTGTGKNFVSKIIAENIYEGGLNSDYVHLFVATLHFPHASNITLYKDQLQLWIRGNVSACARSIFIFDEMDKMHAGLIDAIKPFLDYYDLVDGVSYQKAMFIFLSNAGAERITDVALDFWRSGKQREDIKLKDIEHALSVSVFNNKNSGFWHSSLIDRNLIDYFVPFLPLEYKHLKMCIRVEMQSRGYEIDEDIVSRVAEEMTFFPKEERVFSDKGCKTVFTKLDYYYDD
test.summary: small-molecule binders of mutant TOR1A in lysate, primary screen, cell lysate, small-molecule microarray, COS7 lysate, 635/667 nm fluorescence (AID 1150);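 further: score pools 667 nm emission and signal to noise measuring lysate protein binding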
test.conditions: COS7 hTOR1A mutant lysate, 635 nm fluorescence, higher = more signal
Quick reference for composite z-score among some molecules
endpoint: composite z-score

| smiles.structure | subject.of.test | recorded.value |
| --- | --- | --- |
| COc1ccc(C#Cc2ccc3c(c2)[C@]2(C(=O)N3)[C@H](c3ccc(O)cc3)N3[C@H](c4ccccc4)[C@H](c4ccccc4)OC(=O)[C@H]3[C@@H]2C(=O)N2CCN(c3ncccn3)CC2)cc1 | Torsin-1A (Homo sapiens) (UniProt O14656) | 0.923 |
| C=C(C(=O)CC[C@@H](OC(C)=O)c1ccccc1OCCO)C(C)C | Torsin-1A (Homo sapiens) (UniProt O14656) | -0.353 |
| COCCOC(=O)N1C(=O)[C@@]2(c3cc(C#CC4(O)CCCCCC4)ccc31)[C@H](C(=O)NC[C@H](O)c1ccccc1)[C@H]1C(=O)O[C@H](c3ccccc3)[C@H](c3ccccc3)N1[C@@H]2c1ccccc1OCCO | Torsin-1A (Homo sapiens) (UniProt O14656) | 0.709 |

====

test.summary: mitochondrial membrane potential change in A549 cells, profiling panel, cell-based, JC-1 fluorescence, basal, 24 h, 100 nL (AID 1138);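 further: A549 lung adenocarcinoma cells under basal conditions with no added stimulus; test concentration not given here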
test.conditions: higher = more signal

| smiles.structure | z-score |
| --- | --- |
| [N-]=[N+]=NCc1ccccc1C[C@]1(C(=O)NCc2ccccc2)N=C(c2ccc(OCCCO)cc2)O[C@H]1c1ccccc1 | 0.488 |
| O=C(NC1CC1)[C@@H]1c2ccccc2C(=O)N(Cc2ccccc2C(F)(F)F)[C@H]1c1ccc(CO)cc1 | 2.04 |
| CC(C)(C)OC(=O)CC[C@]1(C(=O)NCc2ccccc2)COC(c2ccc(OCCCO)cc2)=N1 | 0.695 |
| O=C1O[C@H](c2ccccc2)[C@H](c2ccccc2)N2[C@H]1[C@@H](C(=O)Nc1nc3ccccc3s1)[C@]1(C(=O)Nc3ccc(C#CCCO)cc31)[C@H]2c1ccccc1OCCO | -1.93 |
